// each record: one item and its pKi for UniProt P01112
Sequence (P01112 whole entry, looked up): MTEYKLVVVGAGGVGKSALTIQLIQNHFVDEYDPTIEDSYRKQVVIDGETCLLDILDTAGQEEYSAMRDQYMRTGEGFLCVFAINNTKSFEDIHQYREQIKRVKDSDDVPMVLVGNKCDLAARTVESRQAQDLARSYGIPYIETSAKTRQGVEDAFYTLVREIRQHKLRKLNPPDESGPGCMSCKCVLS
On this scale, pKi is minus log10 of a concentration expressed in M (mol/L).

Completed entries (count: 5):
[[record]]
smiles_notation = "Cc1ccc(C)c(N2CCN(C(=O)CCc3nc(-c4ccccc4)no3)CC2)c1"
data_value = 6.85

[[record]]
smiles_notation = "COc1ccc(-c2noc(CCC(=O)N3CCN(c4cc(C)ccc4C)CC3)n2)cc1"
data_value = 6.57

[[record]]
smiles_notation = "COc1ccc(-c2noc(CCC(=O)N3CCN(c4ccccc4Cl)CC3)n2)cc1"
data_value = 6.54

[[record]]
smiles_notation = "Cc1ccc(C)c(N2CCN(C(=O)CCc3nc(-c4ccc(Br)cc4)no3)CC2)c1"
data_value = 6.54

[[record]]
smiles_notation = "Cc1ccc(C)c(N2CCN(C(=O)CCc3nc(-c4ccccc4Br)no3)CC2)c1"
data_value = 8.00


Lookup: Name the reported pKi value associated with the compound COc1ccc(-c2noc(CCC(=O)N3CCN(c4ccccc4F)CC3)n2)cc1
Found: 8.00

Lookup: Now try COc1cccc(-c2noc(CCC(=O)N3CCN(c4cc(C)ccc4C)CC3)n2)c1 .
Found: 6.64

Origin of values: PubChem BioAssay AID2053
